// provenance: patent US5200409A

Items are presented alongside their recorded MIC.
Tested on: Candida albicans (Ca)
Experiment: Minimum inhibitory concentration (MIC) in malt yeast agar
Assay type: cell-based, Candida albicans ATCC 10231
Conditions: malt yeast agar; 30° C.; 48 hours for yeast; read-out: Minimum Inhibitory Concentration, Ca

Worked cases, answers included:
Request: State MIC on Candida albicans (Ca). Entry: "N#CC(C#N)=C1Sc2nc3ccccc3nc2S1"
Result: > 500 mg/L

Request: Provide Candida albicans (Ca) MIC reading for "N#CC(C#N)=C1Sc2nc3ccc(Cl)cc3nc2S1" .
Result: > 500 mg/L

More entries:
Request: # return MIC of "N#CC1=C(C#N)Sc2nc3cc(Cl)ccc3nc2S1" (system: Candida albicans (Ca))
Result: < 10 mg/L

Request: Report value: MIC, system: Candida albicans (Ca), compound: "Cc1ccc2nc3c(nc2c1)SC(=C(C#N)C#N)S3"
Result: > 500 mg/L

---

Tested on: Penicillium chrysogenum (Pc)
Assay: Minimum inhibitory concentration (MIC) in malt yeast agar
Format: cell-based, Penicillium chrysogenum ATCC 9480
Conditions: 72 h, read-out: Minimum Inhibitory Concentration, Pc
MEASUREMENT_KIND: MIC
Returns: string containing the numeric result and its unit.

See these solved cases before continuing.
Request: Write MIC of Cc1cc2nc3c(nc2cc1[N+](=O)[O-])SC(=C(C#N)C#N)S3 [R] ; system used: Penicillium chrysogenum (Pc)
Result: 50 µg/mL

Request: Retrieve MIC on Penicillium chrysogenum (Pc); query Cc1ccc2nc3c(nc2c1)SC(C#N)=C(C#N)S3 [D]
Result: 50 µg/mL

Request: Look up and report measured MIC (Penicillium chrysogenum (Pc)) for the following compound: N#CC1=C(C#N)Sc2nc3cc([N+](=O)[O-])c(Cl)cc3nc2S1 [G]
Result: 100 µg/mL

Continuing:
Request: # lookup: Penicillium chrysogenum (Pc) MIC, key = N#CC(C#N)=C1Sc2nc3ccc([N+](=O)[O-])cc3nc2S1 [L]
Result: 2.5 µg/mL

Request: Provide MIC, recorded with Penicillium chrysogenum (Pc), of N#CC(C#N)=C1Sc2nc3cc([N+](=O)[O-])c([N+](=O)[O-])cc3nc2S1 [M]
Result: 2.5 µg/mL

Request: Write MIC of N#CC1=C(C#N)Sc2nc3cc([N+](=O)[O-])c([N+](=O)[O-])cc3nc2S1 [B] ; system used: Penicillium chrysogenum (Pc)
Result: 10 µg/mL

---

MIC listing for selected molecules.
System: Bacillus subtilis (Bs)
Assay: Minimum inhibitory concentration (MIC) in nutrient agar
Format: cell-based, Bacillus subtilis ATCC 8473
Settings: 48 h, pH 6.8, read-out: Minimum Inhibitory Concentration, Bs

Request: Report measured MIC; entry is "Cc1ccc2nc3c(nc2c1)SC(=C(C#N)C#N)S3"
Result: > 500 µg/mL

Request: Return the recorded MIC value; entry: "N#CC(C#N)=C1Sc2nc3ccc(Cl)cc3nc2S1"
Result: > 500 µg/mL

Continuing:
Request: State its MIC: "N#CC1=C(C#N)Sc2nc3cc([N+](=O)[O-])c([N+](=O)[O-])cc3nc2S1"
Result: 500 µg/mL

Request: Supply recorded MIC for "N#CC(C#N)=C1Sc2nc3ccc(C#N)cc3nc2S1" here.
Result: > 500 µg/mL

Request: Check the records and state MIC for "N#CC(C#N)=C1Sc2nc3ccc([N+](=O)[O-])cc3nc2S1"
Result: 100 µg/mL

Request: State, in one line, measured MIC of "N#CC(C#N)=C1Sc2nc3ccc(C(=O)c4ccccc4)cc3nc2S1"
Result: > 500 µg/mL

Request: Look up MIC of "N#CC(C#N)=C1Sc2nc3cc(Cl)c([N+](=O)[O-])cc3nc2S1" and report it.
Result: > 500 µg/mL

Request: Return value of MIC for input "N#CC(C#N)=C1Sc2nc3ccccc3nc2S1" , no commentary.
Result: > 500 µg/mL

Request: Quick one: give measured MIC for "Cc1cc2nc3c(nc2cc1[N+](=O)[O-])SC(=C(C#N)C#N)S3"
Result: > 500 µg/mL

Request: Consider the molecule "N#CC(C#N)=C1Sc2nc3cc([N+](=O)[O-])c([N+](=O)[O-])cc3nc2S1" and give its recorded MIC.
Result: 100 µg/mL

Request: Using the record for "N#CC(C#N)=C1Sc2nc3ccc(C(F)(F)F)cc3nc2S1" , state its measured MIC.
Result: > 500 µg/mL

Request: Fill in reported MIC for this entry: "COc1ccc2nc3c(nc2c1)SC(=C(C#N)C#N)S3"
Result: > 500 µg/mL

---

System: marine organisms
Experiment: Marine antifouling rating of coated test panels exposed to the marine environment
Settings: 6 weeks; topside, white background; scale 10 (completely free of growth) to 0 (completely covered)
For each record, check the reported Marine Antifouling Rating, 6 Week Test, Top Panel: if it is below 8 write Fulfilled, else write Not fulfilled.

Request: Record N#CC1=C(C#N)Sc2nc3cc(Cl)ccc3nc2S1 [C] : is its Marine Antifouling Rating, 6 Week Test, Top Panel strictly below 8?
Result: Fulfilled

Request: Strictly below 8 in Marine Antifouling Rating, 6 Week Test, Top Panel? N#CC(C#N)=C1Sc2nc3ccc(Cl)cc3nc2S1 [O]
Result: Fulfilled

Request: Regarding N#CC(C#N)=C1Sc2nc3ccc([N+](=O)[O-])cc3nc2S1 [L] , kindly confirm whether its Marine Antifouling Rating, 6 Week Test, Top Panel is beneath 8.
Result: Not fulfilled

Please find the next molecule below.
Request: Determine whether this molecule shows Marine Antifouling Rating, 6 Week Test, Top Panel lower than 8 (ties excluded): N#CC1=C(C#N)Sc2nc3cc([N+](=O)[O-])c([N+](=O)[O-])cc3nc2S1 [B]
Result: Fulfilled

---

System: Fusarium oxysporum (Fo)
Test: Minimum inhibitory concentration (MIC) in malt yeast agar
Format: cell-based, Fusarium oxysporum ATCC 48112
Conditions: malt yeast agar; 30° C.; 72 hours for fungi; read-out: Minimum Inhibitory Concentration, Fo
MEASUREMENT_KIND: MIC (µg/mL)
Numeric answer only, unit µg/mL assumed.

Worked examples follow.
Request: Quote MIC with test system Fusarium oxysporum (Fo) for "N#CC(C#N)=C1Sc2nc3ccc(C#N)cc3nc2S1"
Result: 500

Request: Provide MIC, recorded with Fusarium oxysporum (Fo), of "COc1ccc2nc3c(nc2c1)SC(C#N)=C(C#N)S3"
Result: 25

Request: Quote MIC with test system Fusarium oxysporum (Fo) for "N#CC1=C(C#N)Sc2nc3cc(Cl)ccc3nc2S1"
Result: 25

Request: Lab note: record MIC of "N#CC(C#N)=C1Sc2nc3ccc([N+](=O)[O-])cc3nc2S1" tested on Fusarium oxysporum (Fo).
Result: 10

Consider the additional compound presented here.
Request: Recall the reported MIC of "N#CC1=C(C#N)Sc2nc3cc([N+](=O)[O-])ccc3nc2S1" on Fusarium oxysporum (Fo) and write it down.
Result: 2.5

---

# MIC values compiled below
Test system: Aspergillus niger (An)
Assay: Minimum inhibitory concentration (MIC) in malt yeast agar
Format: cell-based, Aspergillus niger ATCC 16404
Details: malt yeast agar; 30° C.; 72 hours for fungi; read-out: Minimum Inhibitory Concentration, An
Answer format: numeric, µg/mL implied, no suffix.

Request: Specify MIC for N#CC(C#N)=C1Sc2nc3ccc(C#N)cc3nc2S1 [S] , system Aspergillus niger (An).
Result: 100

Here is another molecule to look at.
Request: Provide the reported MIC (system: Aspergillus niger (An)) for N#CC(C#N)=C1Sc2nc3ccccc3nc2S1 [Compound P]
Result: 500

---

System: Fusarium oxysporum (Fo)
Assay: Minimum inhibitory concentration (MIC) in malt yeast agar
Format: cell-based, Fusarium oxysporum ATCC 48112
Conditions: malt yeast agar; 30° C.; 72 hours for fungi; read-out: Minimum Inhibitory Concentration, Fo
MEASUREMENT_KIND: MIC

Reference set, count: 3
Request: Look up and report measured MIC for this entry: "COc1ccc2nc3c(nc2c1)SC(=C(C#N)C#N)S3"
Result: > 500 µg/mL

Request: Given the compound "N#CC(C#N)=C1Sc2nc3ccc(C(F)(F)F)cc3nc2S1" , write its reported MIC.
Result: > 500 µg/mL

Request: Give the reported MIC for this compound. "N#CC(C#N)=C1Sc2nc3cc(Cl)c([N+](=O)[O-])cc3nc2S1"
Result: > 500 µg/mL

Next:
Request: Indicate the recorded MIC value for this compound: "N#CC1=C(C#N)Sc2nc3cc(C(=O)c4ccccc4)ccc3nc2S1"
Result: 500 µg/mL

Request: Report MIC for "N#CC(C#N)=C1Sc2nc3ccc(Cl)cc3nc2S1"
Result: > 500 µg/mL

---

Test system: Trichoderma viride (Tv)
Assay: Minimum inhibitory concentration (MIC) in malt yeast agar
Assay type: cell-based, Trichoderma viride ATCC 8678
Settings: 72 h, read-out: Minimum Inhibitory Concentration, Tv
Description: The minimum inhibitory concentration (MIC) for the compounds listed in Table I is determined for 9 bacteria, using nutrient agar: and 7 yeast and fungi, using malt yeast agar. A one percent solution of the test compound is prepared in a mixture of acetone and water. […] The inoculation with the yeast and fungi is accomplished as follows. […] The petri plates are incubated at 30° C. and read after 48 hours for yeast and 72 hours for fungi. […]
# MIC per entry
State just the number; it will be interpreted in µg/mL.

Request: Give a short answer stating reported MIC for "N#CC1=C(C#N)Sc2nc3cc([N+](=O)[O-])c([N+](=O)[O-])cc3nc2S1" .
Result: 50

New cases:
Request: Name the recorded MIC of the compound listed here: "N#CC1=C(C#N)Sc2nc3ccccc3nc2S1"
Result: 100

Request: Look up MIC of "N#CC(C#N)=C1Sc2nc3cc([N+](=O)[O-])c([N+](=O)[O-])cc3nc2S1" and report it.
Result: 10

Request: Look up and state reported MIC for "COc1ccc2nc3c(nc2c1)SC(C#N)=C(C#N)S3"
Result: 100

Request: Look up MIC of "N#CC1=C(C#N)Sc2nc3cc(C#N)ccc3nc2S1" and report it.
Result: 100

Request: Recall and state the measured MIC for "N#CC1=C(C#N)Sc2nc3cc([N+](=O)[O-])ccc3nc2S1" .
Result: 10

Request: Look up and report measured MIC for this entry: "N#CC1=C(C#N)Sc2nc3cc(Cl)ccc3nc2S1"
Result: 250

Request: Give the value of MIC reported for the following: "N#CC1=C(C#N)Sc2nc3cc([N+](=O)[O-])c(Cl)cc3nc2S1"
Result: 100

Request: State its MIC for this compound: "Cc1ccc2nc3c(nc2c1)SC(C#N)=C(C#N)S3"
Result: 100
